# system: HLA-A*02:01 (Homo sapiens, UniProt P04439, D140Y/D185E/D98H/E176V/E277Q/G131W/G231S/I119V/I121R/I166T/I218V/L300P/L318F/N151K/N90K/P208A/P217A/Q86G/Q94H/R138H/R169H/T345S)
# experimental_protocol: MHC binding assay: UV-ligand exchange with beta2m ELISA (exchange yield)
# experimental_context: binding to HLA-A*02:01, β2m ELISA
# From the text: Candidate peptides for T cell based therapies according to the present invention were further tested for their MHC binding capacity (affinity). The individual peptide-MHC complexes were produced by UV-ligand exchange, where a UV-sensitive peptide is cleaved upon UV-irradiation, and exchanged with the peptide of interest as analyzed. Only peptide candidates that can effectively bind and stabilize the peptide-receptive MHC molecules prevent dissociation of the MHC complexes. […]
attribute_measured: Peptide exchange (MHC class I binding score, peptide exchange yield)

substance: 143 (LLLDITPEI; listed as Homo sapiens) [compound 143]
measurement: “++++” (≥75% = ++++)
--
substance: 208 (KISPVTFSV; listed as Homo sapiens) [compound 208]
measurement: “+++” (≥50 = +++)
--
substance: 611 (YLLDDGTLVV; listed as Homo sapiens) [compound 611]
measurement: “++++” (≥75% = ++++)
--
substance: 212 (ALWDQDNLSV; listed as Homo sapiens) [compound 212]
measurement: “++” (≥20% = ++)
--
substance: 366 (RLLDMGETDLML; listed as Homo sapiens) [compound 366]
measurement: “+++” (≥50 = +++)
--
substance: 519 (GLLHLTLLL; listed as Homo sapiens) [compound 519]
measurement: “+++” (≥50 = +++)
--
substance: 7 (SLVGLLLYL; listed as Homo sapiens) [compound 7]
measurement: “++++” (≥75% = ++++)
--
substance: 340 (ALLSMTFPL; listed as Homo sapiens) [compound 340]
measurement: “++++” (≥75% = ++++)

Lab note: next substance to report on.
**Q:** Give the measured Peptide exchange (MHC class I binding score, peptide exchange yield) of 218 (SALEELVNV; listed as Homo sapiens) [compound 218] .
**A:** “++” (≥20% = ++)

Origin of values: patent US10280205B2
